IC50 for assorted compounds
Biological target: IL-17A/A (Homo sapiens)
Construct: purchased Genscript Z03228
Assay: IL-17A/A HEK-Blue Cell Assay
Type: cell-based
Conditions: HEK-Blue IL-17A reporter cell line, SEAP readout at A630, 20 hours incubation with IL-17A/A; top concentration 10 uM, 1 uM or 0.3 uM; read-out: IL-17A/A inhibition (pIC50) (converted)

Record excerpt, results attached:
CCC(=O)N[C@@H](C(=O)N1CCC(C)(OC)CC1)[C@@H](C)c1ccc(NC(=O)[C@@H](NC(=O)c2ccnn2CC)[C@H]2CC[C@H](C)CC2)c(F)c1: < 10 nM
CCn1nccc1C(=O)N[C@H](C(=O)Nc1ccc([C@H](C)[C@@H](NC(=O)C2CC2)C(=O)N2CCN(C)CC2)cc1F)C1CCCCCC1: < 10 nM
CCC(=O)N[C@@H](C(=O)N1CCN(C)CC1)[C@@H](C)c1ccc(NC(=O)[C@@H](NC(=O)C(F)(F)C2CCN(C(C)=O)CC2)C2CCCCC2)c(F)c1: 100 to 10000 nM
CCC(=O)N[C@@H](C(=O)N1CCN(C)CC1)[C@@H](C)c1ccc(NC(=O)[C@@H](NC(=O)C(F)(F)c2cnn(CC)c2)C2CCCCCC2)c(F)c1: < 10 nM
CCC(=O)N[C@@H](C(=O)N1CCOCC1)[C@@H](C)c1ccc(NC(=O)[C@@H](NC(=O)C(F)(F)c2cccc(C#N)c2)C2CCCCC2)c(F)c1: 10 to 100 nM

Qu. So what does the record say about IC50 for `CCC(=O)N[C@H](Cc1ccc(NC(=O)[C@@H](NC(=O)c2ccnn2CC)C2CCCCC2)c(F)c1)C(=O)N1CCN(C)C[C@@H]1C` ?
Ans. 100 to 10000 nM

Qu. For the compound shown here, `CCC(=O)N[C@@H](C(=O)N1CCC(C)(O)CC1)[C@@H](C)c1ccc(NC(=O)[C@@H](NC(=O)c2ccnn2CC)[C@H]2CC[C@H](C)CC2)c(F)c1` , give the reported IC50.
Ans. 10 to 100 nM

Qu. Recorded IC50 for `CCC(=O)N[C@@H](C(=O)N1CCN(C)CC1)[C@@H](C)c1ccc(NC(=O)[C@@H](NC(=O)c2ccnn2CC)C2CCCCC2)c(F)c1` , please?
Ans. 10 to 100 nM

Qu. Any idea what IC50 was measured for `CC(C)n1nccc1C(=O)N[C@H](C(=O)Nc1ccc([C@H](C)[C@@H](NC(=O)c2cnns2)C(=O)N2CCN(C)CC2)cc1F)C1CCCCCC1` ?
Ans. < 10 nM

Qu. Look at this compound and give its reported IC50. `CCC(=O)N[C@H](Cc1ccc(NC(=O)[C@@H](NC(=O)c2ccnn2C2CC2)C2CCCCC2)c(F)c1)C(=O)N1CCN(C)CC1`
Ans. 100 to 10000 nM

Qu. Can you share its IC50? I mean this compound: `CCn1nccc1C(=O)N[C@H](C(=O)Nc1ccc([C@H](C)[C@@H](NC(=O)C2(F)CCC2)C(=O)N2CCN(C)[C@H](C)C2)cc1F)[C@H]1CC[C@H](C)CC1`
Ans. 10 to 100 nM

----------
A collection of compounds and their measured IC50
Biological target: IL-17A/A (Homo sapiens)
Construct: purchased Genscript Z03228
Sequence (Q16552 24-155): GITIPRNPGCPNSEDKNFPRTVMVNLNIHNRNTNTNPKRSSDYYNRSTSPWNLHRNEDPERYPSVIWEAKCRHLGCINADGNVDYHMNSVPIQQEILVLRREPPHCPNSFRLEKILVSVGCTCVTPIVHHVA
Test: IL-17A/A HEK-Blue Cell Assay
Assay type: cell-based
Conditions: HEK-Blue IL-17A reporter cell line, SEAP readout at A630, 20 hours incubation with IL-17A/A; top concentration 10 uM, 1 uM or 0.3 uM; read-out: IL-17A/A inhibition (pIC50) (converted)

Known results for compounds:
CCC(=O)N[C@@H](C(=O)N1CCN(C)CC1)[C@@H](C)c1ccc(NC(=O)[C@@H](NC(=O)C(F)(F)c2csc(C)c2)C2CCCCCC2)c(F)c1: < 0.01 µM
CCC(=O)N[C@H](Cc1ccc(NC(=O)[C@@H](NC(=O)C(F)(F)c2ccc(OC)nc2)C2CCC(F)(F)CC2)c(F)c1)C(=O)N1CCN(C)CC1: 0.1 to 10 µM

Qu. Recorded IC50 for `CCn1nccc1C(=O)N[C@H](C(=O)Nc1ccc([C@H](C)[C@@H](NC(=O)c2ccc(C)s2)C(=O)N2CCN(C)CC2)cc1F)C1CCCCC1` , please?
Ans. 0.1 to 10 µM

Qu. Item `CCC(=O)N[C@@H](C(=O)N1CCN(C)CC1)[C@@H](C)c1ccc(NC(=O)[C@@H](NC(=O)Cc2ccc(CC(=O)O)cc2)C2CCCCC2)c(F)c1` has what recorded IC50?
Ans. 0.1 to 10 µM

Qu. Looking for the measured IC50 of `CCC(=O)N[C@@H](C(=O)N1CC(N(C)C)C1)[C@@H](C)c1ccc(NC(=O)[C@@H](NC(=O)c2ccnn2CC)C2CCCCCC2)c(F)c1` , can you help?
Ans. 0.01 to 0.1 µM

Qu. // query IC50 value for entry `CCn1nccc1C(=O)N[C@H](C(=O)Nc1ccc([C@H](C)[C@@H](NC(=O)NC2CC2)C(=O)N2CCN(C)CC2)cc1F)C1CCCCCC1`
Ans. < 0.01 µM

Qu. # get_value(readout='IC50', item= `CCC(=O)N[C@@H](C(=O)N1CCS(=O)(=O)CC1)[C@@H](C)c1ccc(NC(=O)[C@@H](NC(=O)C(F)(F)c2cccc(C#N)c2)C2CCCCCC2)c(F)c1` )
Ans. < 0.01 µM

Qu. Reported IC50, compound `CCn1nccc1C(=O)N[C@H](C(=O)Nc1ccc(C[C@@H](NC(=O)CC2CC2)C(=O)N2CCN(C)CC2)cc1F)C1CCCCC1` : ____
Ans. 0.1 to 10 µM

Qu. Quick one: IC50 of `CCn1nccc1C(=O)N[C@H](C(=O)Nc1ccc([C@H](C)[C@@H](NC(=O)C(C)(F)F)C(=O)N2CCN(C)[C@@H](C)C2)cc1F)[C@H]1CC[C@H](C)CC1` ?
Ans. < 0.01 µM

Qu. Which value of IC50 has been reported for `CNC(=O)N[C@@H](C(=O)N1CCN(C)CC1)[C@@H](C)c1ccc(NC(=O)[C@@H](NC(=O)C(F)(F)c2cccc(C#N)c2)C2CCCCC2)c(F)c1` in the records?
Ans. 0.01 to 0.1 µM

Qu. Request the reported IC50 associated with `CCC(=O)N[C@@H](C(=O)N1CCN(Cc2ccccc2)CC1)[C@@H](C)c1ccc(NC(=O)[C@@H](NC(=O)C(F)(F)c2cncc(OC)c2)[C@H]2CC[C@H](C)CC2)c(F)c1`
Ans. 0.01 to 0.1 µM

----------
Target: IL-17A/A (Homo sapiens, UniProt Q16552)
Construct: purchased Genscript Z03228
Assay: IL-17A/A HEK-Blue Cell Assay
Format: cell-based
Details: HEK-Blue IL-17A reporter cell line, SEAP readout at A630, 20 hours incubation with IL-17A/A; top concentration 10 uM, 1 uM or 0.3 uM; read-out: IL-17A/A inhibition (pIC50) (converted)
Experimental: The HEK-Blue IL-17A reporter cell line (Fisher #NC1408637) was used for cell-based IL-17A/A inhibition assays. Cells were grown and prepared for assays according to the manufacturer's instructions. […] Media from the cells is then added to a development reagent (Quanti-Blue Substrate, Fisher #NC9711613), and read at A630. […]
Examples of compounds with documented IC50 follow.

CCc1nonc1C(=O)N[C@H](C(=O)Nc1ccc([C@H](C)[C@@H](NC(=O)C(C)(C)F)C(=O)N2CCN(C)CC2)cc1F)[C@H]1CC[C@H](C)CC1: 0.01 to 0.1 µM
CCC(=O)N[C@@H](C(=O)N1CCC(C)(O)CC1)[C@@H](C)c1ccc(NC(=O)[C@@H](NC(=O)C(F)(F)c2cnn(CC)c2)[C@H]2CC[C@H](C)CC2)c(F)c1: < 0.01 µM

Qu. Which IC50 is reported for this compound? `CCn1nccc1C(=O)N[C@H](C(=O)Nc1ccc([C@H](C)[C@@H](NS(=O)(=O)CC)C(=O)N2CCN(C)CC2)cc1F)[C@H]1CC[C@H](C)CC1`
Ans. 0.01 to 0.1 µM

Qu. Would you kindly share the measured IC50 for `CCC(=O)N[C@H](Cc1ccc(NC(=O)[C@@H](NC(=O)c2ccnn2CC)C2CCCCCC2)c(F)c1)C(=O)N1CCN(C)CC1` ?
Ans. 0.01 to 0.1 µM

Qu. Report IC50 for CCC(=O)N[C@@H](C(=O)N1CCN(C)CC1)[C@@H](C)c1ccc(NC(=O)C(NC(=O)c2nonc2CC)C(CC)c2ccc(F)cc2)c(F)c1 (single isomer, unassigned) [Compound 558] please.
Ans. < 0.01 µM
